Each record here notes measured IC50.
# Target system: CDK12 (aa686-1082)/Cyclin K (Homo sapiens (Human))
# Sequence (Q9NYV4 686-1082): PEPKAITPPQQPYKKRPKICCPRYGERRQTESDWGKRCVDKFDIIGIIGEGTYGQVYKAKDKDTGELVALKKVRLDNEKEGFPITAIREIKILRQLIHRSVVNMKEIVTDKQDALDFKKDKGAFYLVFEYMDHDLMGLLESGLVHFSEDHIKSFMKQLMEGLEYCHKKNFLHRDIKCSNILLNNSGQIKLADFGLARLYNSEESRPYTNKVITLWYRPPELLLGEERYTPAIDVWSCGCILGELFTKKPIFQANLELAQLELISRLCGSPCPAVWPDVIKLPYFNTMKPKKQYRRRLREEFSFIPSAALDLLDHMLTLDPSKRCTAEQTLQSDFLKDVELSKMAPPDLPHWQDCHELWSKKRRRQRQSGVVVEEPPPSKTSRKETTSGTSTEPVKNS
# Sequence (O75909 whole entry partner, the tested form may be a part): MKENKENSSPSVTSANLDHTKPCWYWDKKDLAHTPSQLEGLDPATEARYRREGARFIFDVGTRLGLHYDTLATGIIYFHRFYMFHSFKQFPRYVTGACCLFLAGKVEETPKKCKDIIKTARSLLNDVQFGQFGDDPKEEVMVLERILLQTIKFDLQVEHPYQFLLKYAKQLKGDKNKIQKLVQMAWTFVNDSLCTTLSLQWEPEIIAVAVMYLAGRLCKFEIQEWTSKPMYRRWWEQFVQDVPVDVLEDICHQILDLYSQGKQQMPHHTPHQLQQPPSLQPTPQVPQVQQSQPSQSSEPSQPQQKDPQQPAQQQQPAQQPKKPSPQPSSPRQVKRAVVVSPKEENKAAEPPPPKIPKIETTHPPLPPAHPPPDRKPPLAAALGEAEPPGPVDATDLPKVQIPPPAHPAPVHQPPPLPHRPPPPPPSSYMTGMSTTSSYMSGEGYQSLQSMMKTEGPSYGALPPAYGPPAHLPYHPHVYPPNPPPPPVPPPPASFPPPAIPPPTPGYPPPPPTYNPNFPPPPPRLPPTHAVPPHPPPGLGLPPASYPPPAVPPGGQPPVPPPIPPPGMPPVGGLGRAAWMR
# Procedure summary: Enzyme activity test, mobility shift assay (Table 1)
# Assay type: biochemical
# Run parameters: 2 mM ATP; read-out: CDK12 kinase IC50

Recorded results for 9 molecules are shown here.
COC(=O)Nc1ccc2c(-c3nc(N[C@H]4CCC5(CC5)NC4)ncc3C(F)(F)F)c[nH]c2c1C(F)F = > 500 nM
COC(=O)Nc1ccc2c(-c3nc(N[C@H]4[C@@H]5CNC[C@@H]54)ncc3C(F)(F)F)c[nH]c2c1Br = > 500 nM
COC(=O)Nc1ccc2c(-c3nc(N[C@H]4CCC(C)(C)NC4)ncc3Cl)c[nH]c2c1OC(F)(F)F = > 500 nM
COC(=O)Nc1ccc2c(-c3nc(N[C@H]4CCC5(CC5)NC4)ncc3C(F)(F)F)c[nH]c2c1Br = > 500 nM
COC(=O)Nc1ccc2c(-c3nc(N[C@H]4CCCNC4)ncc3C(F)(F)F)c[nH]c2c1 = > 500 nM
COC(=O)Nc1ccc2c(-c3nc(N[C@H]4CCC5(CC5)NC4)ncc3C(F)(F)F)c[nH]c2c1C(C)(F)F = > 500 nM
COC(=O)Nc1ccc2c(-c3nc(N[C@H]4CC[C@@H](C)NC4)ncc3C(F)(F)F)c[nH]c2c1OC = > 500 nM
COC(=O)Nc1ccc2c(-c3nc(N[C@H]4CCCNC4)ncc3C(F)(F)F)c[nH]c2c1C1COC1 = > 500 nM
COC(=O)N(C)c1ccc2c(-c3nc(N[C@H]4CCCNC4)ncc3C(F)(F)F)c[nH]c2c1C(F)F = > 500 nM

Consider now this further molecule.
The recorded IC50 for COC(=O)Nc1ccc2c(-c3nc(N[C@H]4CC[C@@H](C)NC4)ncc3C(F)(F)F)c[nH]c2c1Cl is > 500 nM
